- test_system: HIV Env, isolate CNE52 (HIV)
- experimental_protocol: cell-based or functional assay
observed_property: IC80 (µg/ml) with constrains (µg/mL)
Quick reminder: number only, in µg/mL, skip the unit.

Requested field: IC80 (µg/ml) with constrains. Item: ePGDM13 (antibody, V domains shown) VH: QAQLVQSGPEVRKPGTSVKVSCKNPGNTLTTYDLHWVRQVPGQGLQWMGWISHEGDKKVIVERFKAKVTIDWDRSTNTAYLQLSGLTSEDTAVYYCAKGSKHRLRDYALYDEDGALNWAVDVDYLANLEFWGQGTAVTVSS VL: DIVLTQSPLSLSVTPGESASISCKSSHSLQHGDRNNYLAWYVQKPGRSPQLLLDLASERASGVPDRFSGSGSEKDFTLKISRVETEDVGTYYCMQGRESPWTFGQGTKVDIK 11.3
